# credit: patent US20220144940A1

Molecular target: T1, HA-tagged human ILT7 on CT-550 cells (human, UniProt P59901 24-499)
T1 construct: whole, on cells; CT-550 cells: CT-125 cells (2B4 murine T-cell hybridoma with mouse FcεRIγ and NFAT-GFP reporter) transduced with HA-tagged human ILT7; also called human ILT7-expressing cells; not shown: HA tag
T1 sequence (P59901 24-499): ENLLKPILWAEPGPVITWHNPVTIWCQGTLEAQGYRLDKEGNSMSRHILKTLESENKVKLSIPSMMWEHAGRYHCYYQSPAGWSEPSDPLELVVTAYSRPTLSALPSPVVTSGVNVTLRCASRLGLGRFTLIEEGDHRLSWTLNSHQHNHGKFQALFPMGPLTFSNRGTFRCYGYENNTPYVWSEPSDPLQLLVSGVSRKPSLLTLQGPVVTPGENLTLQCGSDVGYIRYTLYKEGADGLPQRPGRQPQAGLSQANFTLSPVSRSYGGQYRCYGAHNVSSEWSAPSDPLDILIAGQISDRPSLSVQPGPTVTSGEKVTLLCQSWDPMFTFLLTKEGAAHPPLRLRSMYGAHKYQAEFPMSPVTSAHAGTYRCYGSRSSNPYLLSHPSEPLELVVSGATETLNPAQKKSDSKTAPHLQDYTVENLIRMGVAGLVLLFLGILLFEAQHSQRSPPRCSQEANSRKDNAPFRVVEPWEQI
Experiment: flow cytometry on CT-550 cells expressing human ILT7, anti-human IgG DyLight 649 detection; table 'Mean Ec50 (nM)', n = 2
Description: Binding of anti-ILT7 variants and isotype controls on human and cynomolgus ILT7 was assessed by flow cytometry analysis using CT-550 and cynoILT7 CT-125 cells respectively. CT-125 cells were used as control. […] Human IgG binding on cell surface was detected using a secondary anti-human IgG antibody conjugated to DyLight 649 (1 in 1000 dilution). […]
result-type: pEC50
Friendly reminder that pEC50 comes from taking -log10 of the concentration in mol/L.

binder ILT70052 (antibody, V domains shown) VH: EVQLVESGGGLVKPGGSLRLSCEASGFTFTDYYMNWIRQAPGKGLEWISYISPGGTTVYYADSVKGRFTISRDNAKNSLYLQMNSLRVEDTAVYYCARDISGYGDWFDPWGKGTLVTVSS VL: QSVVTQPPSASGTPGQRVTISCSGSSSNIGSNTVNWYQLLPATAPRILIYNNNQRPSGVPDRFAGSKSGTSASLAISGLQSEDEADYYCGAWDDSLNSPVFGGGTKLTVL , pEC50 observed: 7.64

Reported pEC50 of ILT70142 (antibody, V domains shown) VH: QVQLVQSGAEVKKPGASVKVSCKASGYTFTSYGISWVRQAPGQGLEWMGWISAYNGNTNYAQKLQGRVTMTRDTSISTAYMELSRLRSDDTAVYYCARNGLWGWDSDAFDIWGQGTTVTVSS VL: QSVLTQPPSVSAAPGQKVTISCSGSSSNIGNNYVSWYQQLPGTAPKLLIYDNNKRPSGIPDRFSGSKSGTSATLGITGLQTGDEADYYCGTWDSSLSAGVFGTGTQLTVL : 8.69

// pEC50 lookup, binder = 7C7 (antibody, V domains shown, also called anti-ILT7 clone 7C7) VH: EVQLVESGGGVVQPGRSLRLSCAASGFTFSIYPIEWVRQAPGQGLEWIGNFHPYNDDTKYNEKFKGRVTMTTDTSTSTVYMELSSLRSEDTAVYYCTRGDDYGLDYWGQGTLVTVSS VL: NIQMTQSPSSLSASVGDRVTITCDASQNVRTAVAWYQQKPGKAPKRLIYLASNRHTGVPSRFSGSGSGTDFTLTISSLQSEDFATYYCLQHWNYPFTFGPGTKLEIK , result: 8.89

Documented pEC50 of ILT70144 (antibody, V domains shown) VH: QVQLVQSGAEVKKPGASVKVSCKASGYTFTSYGISWVRQAPGQGLEWMGWISAYNGNTNYAQKLQGRVTMTRDTSISTAYMELSRLRSDDTAVYYCARNGLWGWDSDAFDIWGQGTTVTVSS VL: QSVLTQPPSVSAAPGQKVTISCSGSSSNIGNNYVSWYQQLPGTAPKLLIYDNNKRPSGIPDRFSGSKSGTSATLGITGLQTGDEADYYCGTWDSSLSAGVFGTGTQLTVL : 8.77
